test system: phospho-serine 2056 DNA-PK in HCT116 cells; assay: DNA-PK phosphorylation at serine 2056 (cellular), ELISA in bleomycin-treated HCT116 cells; type: cell-based; conditions: Homo sapiens, HCT-116, phospho-serine 2056 DNA-PK, bleomycin-treated HCT116 cells; class symbols A-D; read-out: IC50 pDNA-PK
quantity.measured: IC50

The examples below pair each entry with its known result.
compound="Cc1csc(C(O)c2cc(-c3ncnc4cc(N5CCOCC5)ccc34)c(F)cc2Cl)n1 (stereo not shown)" result="0.5 to 5 µM"
compound="OC(c1ccc(OCC(F)(F)F)nn1)c1cc(-c2ncnc3cc(N4CCOCC4)ccc23)c(F)cc1Cl (stereo not shown)" result="0.5 to 5 µM"
compound="COc1ccc(C(C)(O)c2cc(-c3ncnc4cc(N5CCOCC5)ccc34)c(F)cc2Cl)nn1 (stereo not shown)" result="10 to 30 µM"
compound="Cn1nc(C(O)c2cc(-c3ncnc4cc(N5CCOCC5)ccc34)c(F)cc2F)ccc1=O (stereo not shown)" result="0.5 to 5 µM"
compound="OC(c1ccccn1)c1cc(-c2ncnc3cc(N4CCOCC4)ccc23)c(F)cc1F (stereo not shown)" result="< 0.5 µM"

Consider now this further compound.
For the compound shown here, OCc1csc(C(O)c2cc(-c3ncnc4cc(N5CCOCC5)ncc34)c(F)cc2Cl)n1 (stereo not shown) , give the reported IC50. 10 to 30 µM

###

Test system: phospho-serine 2056 DNA-PK in HCT116 cells
Assay: DNA-PK phosphorylation at serine 2056 (cellular), ELISA in bleomycin-treated HCT116 cells
Format: cell-based
Conditions: Homo sapiens, HCT-116, 6 h, cellular; HCT116 cells, 10 μM bleomycin, six hours; read-out: IC50 pDNA-PK
Method: HCT116 cells were cultivated at 37° C. and 10% CO2 in MEM alpha medium with 10% of foetal calf serum and 2 mM glutamine. The cells were detached from the base of the culture vessels with the aid of trypsin/EDTA, centrifuged off in centrifuge tubes, taken up in fresh medium, and the cell density was determined. […] The development of the enzymatic reaction was carried out with the aid of a chemiluminescent reagent, the chemiluminescence was measured with the aid of a Mithras LB940. […]
quantity.measured: IC50

compound="Cn1c(C(O)c2ccc(F)c(-c3ncnc4cc(N5CCOCC5)ccc34)c2)cccc1=O (stereo not shown)" quantity_measured=IC50 result="< 500 nM"
compound="OC(c1ccc(F)c(-c2ncnc3cc(N4CCOCC4)ccc23)c1)c1nccnc1Cl (stereo not shown)" quantity_measured=IC50 result="< 500 nM"
compound="OC(c1ccc(F)c(-c2ncnc3cc(N4CCOCC4)ccc23)c1)c1ncccc1Cl (stereo not shown)" quantity_measured=IC50 result="< 500 nM"
compound="COc1cc(Cl)nnc1C(O)c1ccc(F)c(-c2ncnc3cc(N4CCOCC4)ccc23)c1 (stereo not shown)" quantity_measured=IC50 result="< 500 nM"
compound="Cc1ccc(C(O)c2ccc(F)c(-c3ncnc4cc(N5CCOCC5)ccc34)c2)nn1 (stereo not shown)" quantity_measured=IC50 result="500 to 5000 nM"
compound=COc1ccc([C@@H](O)c2ccc(F)c(-c3ncnc4cc(N5CCOCC5)ccc34)c2)nn1 quantity_measured=IC50 result="500 to 5000 nM"

Look up IC50: Cc1nccnc1C(O)c1cc(-c2ncnc3cc(N4CCOCC4)ccc23)c(F)cc1F (stereo not shown) < 500 nM

Which IC50 value belongs to CN(C)C(=O)c1ccc(C(O)c2cc(-c3ncnc4cc(N5CCOCC5)ccc34)c(F)cc2Cl)nn1 (stereo not shown) ? 10000 to 30000 nM
